Reference source for all entries: patent US9365853B2

Target: matriptase (Homo sapiens (Human))
READOUT LABEL: Ki (µM)

>>> recorded_result("CC(=O)NC(CCCNC(=N)N)C(=O)c1nc2ccccc2s1 (centres unmarked) [Compound 6]")
0.457
>>> recorded_result("C[C@H](NC(=O)[C@H](CCC(N)=O)NC(=O)[C@@H](N)CCCNC(=N)N)C(=O)N[C@@H](CCCNC(=N)N)C(O)c1nc2ccccc2s1 (mixture of isomers) [Compound 2]")
6.1
